- Read-out: Interleukin-1 alpha (IL1a), IL1A (gene 3552)
- Test: BSK_LPS_IL1a: BioMAP Diversity Plus: LPS Assay for Interleukin-1 alpha (IL1a) Biomarker Activity (AID 2283080)
- Measurement Setup: primary human HUVEC with PBMC; actives raise or lower the signal
- Protocol: BSK_LPS is a cell-based, multiplexed-readout assay that uses umbilical vein endothelium and peripheral blood mononuclear cells, a human vascular primary cell co-culture, with measurements taken at 24 hours after chemical dosing in a 96-well plate.BSK_LPS_IL1a is an assay component measured in the BSK_LPS assay. It measures IL-a antibody related to regulation of gene expression using ELISA technology.Data from the assay component BSK_LPS_IL1a was analyzed into 1 assay endpoint. […]
Calls of active or inactive are those of the source. The calls were made as follows: active = hit-call score of the fitted dose curve at least 0.9, where 1 is the maximum; inactive = score below 0.9.
Thanks in advance; please answer with one of these: class 1 = active, class 0 = inactive

- Compound: "CC(C)C(=O)OCC(C)(C)C(OC(=O)C(C)C)C(C)C (stereo not given)"
  Cat: "class 0"
- Compound: "O=S(=O)(O)C(F)(F)C(F)(F)C(F)(F)C(F)(F)F"
  Cat: "class 0"
- Compound: "Clc1ccc(C(Cl)(Cl)Cl)cc1"
  Cat: "class 0"
- Compound: "CCCCCCCCOC(=O)c1ccccc1C(=O)OCCCCCCCC"
  Cat: "class 0"
- Compound: "C1CC2OC2CC1C1CO1 (stereo not given)"
  Cat: "class 0"
- Compound: "O=C(NC(=O)c1c(F)cccc1F)Nc1cc(Cl)c(OC(F)(F)C(F)F)c(Cl)c1"
  Cat: "class 0"
- Compound: "CCOP(=S)(OCC)SCSC(C)(C)C"
  Cat: "class 0"
- Compound: "Cc1ccc(O)c(C)c1"
  Cat: "class 0"
- Compound: "Cc1ccccc1CO[C@@H]1C[C@@]2(C(C)C)CC[C@]1(C)O2"
  Cat: "class 0"
- Compound: "C=CC(=O)NCNC(=O)C=C"
  Cat: "class 0"

Enquiry: What was the test verdict on CCNc1nc(NC(C)C)nc(SC)n1 ?
Return: class 0

Enquiry: What was the test verdict on CCOCCOC(C)=O ?
Return: class 0

* * *

- Test: ATG_TCF_b_cat_CIS: Attagene CIS-FACTORIAL HepG2 Assay for human T-Cell-Factor with beta-catenin (TCF/b-cat) (AID 2282965)
- Measurement Setup: HepG2 TCF/beta-catenin cis-reporter transcription, actives raise or lower the signal
Activity calls are given as the source filed them. The calls were made as follows: active = hit-call score of the fitted dose curve at least 0.9, where 1 is the maximum; inactive = score below 0.9.
Thanks in advance; please answer with one of these: active, inactive

- Compound: "Nn1cnnc1"
  Cat: "inactive"
- Compound: "Clc1ccc(C(c2ccccc2Cl)C(Cl)(Cl)Cl)cc1 (configuration not stated)"
  Cat: "inactive"
- Compound: "Sc1ccccc1"
  Cat: "inactive"
- Compound: "O=C(NC(=O)c1c(F)cccc1F)Nc1cc(Cl)c(OC(F)(F)C(F)F)c(Cl)c1"
  Cat: "inactive"
- Compound: "CCC(C)c1cc([N+](=O)[O-])cc([N+](=O)[O-])c1O (configuration not stated)"
  Cat: "inactive"

Enquiry: What was the test verdict on CCNc1nc(NC(C)C)nc(SC)n1 ?
Return: inactive

Enquiry: What was the test verdict on CC(C)C(=O)OCC(C)(C)C(OC(=O)C(C)C)C(C)C (configuration not stated) ?
Return: inactive

Enquiry: What was the test verdict on c1ccc(-c2ccccc2)cc1 ?
Return: inactive

Enquiry: What was the test verdict on Cc1cc2c3c(c1)C(c1ccccc1)=N[C@@H](NC(=O)c1ccncc1)C(=O)N3CC2 ?
Return: active

Enquiry: What was the test verdict on CCOC(=O)C(O)(c1ccc(Cl)cc1)c1ccc(Cl)cc1 ?
Return: inactive

Enquiry: What was the test verdict on CC(C)(O)C(=O)Nc1ccc([N+](=O)[O-])c(C(F)(F)F)c1 ?
Return: inactive

Enquiry: What was the test verdict on CCSC(=O)N(CC)C1CCCCC1 ?
Return: inactive

Enquiry: What was the test verdict on N#Cc1ccc(N(CC(N)=O)CC(F)(F)F)cc1C(F)(F)F ?
Return: inactive

Enquiry: What was the test verdict on Cc1cc(-c2ccc(N)c(C)c2)ccc1N ?
Return: inactive

Enquiry: What was the test verdict on CN(C)c1nc(=O)n(C2CCCCC2)c(=O)n1C ?
Return: inactive

Enquiry: What was the test verdict on O=C(NC(=O)c1cc(F)c(F)cc1Cl)Nc1cc(F)ccc1N1CCC(C(=O)O)CC1 ?
Return: inactive

Enquiry: What was the test verdict on ClC1=C(Cl)[C@]2(Cl)[C@@H]3[C@H]4C[C@H]([C@@H]5O[C@H]45)[C@@H]3[C@@]1(Cl)C2(Cl)Cl ?
Return: active

Enquiry: What was the test verdict on CCC(C)(CC)c1cc(NC(=O)c2c(OC)cccc2OC)on1 ?
Return: inactive

Enquiry: What was the test verdict on Cc1ccccc1CO[C@@H]1C[C@@]2(C(C)C)CC[C@]1(C)O2 ?
Return: inactive

Enquiry: What was the test verdict on Cc1cc(O)ccc1Cl ?
Return: inactive

Enquiry: What was the test verdict on O=S(=O)(O)C(F)(F)C(F)(F)C(F)(F)C(F)(F)C(F)(F)C(F)(F)F ?
Return: inactive

Enquiry: What was the test verdict on CC#Cc1cc(C)nc(Nc2ccccc2)n1 ?
Return: active

Enquiry: What was the test verdict on CCOP(=S)(OCC)SCSC(C)(C)C ?
Return: inactive

Enquiry: What was the test verdict on ClC(Cl)=C(c1ccc(Cl)cc1)c1ccc(Cl)cc1 ?
Return: inactive

Enquiry: What was the test verdict on O=C(N[C@H]1CN2CCC1CC2)c1cc2ccoc2cn1 ?
Return: inactive

Enquiry: What was the test verdict on Clc1ccc(C(Cl)(Cl)Cl)cc1 ?
Return: inactive

Enquiry: What was the test verdict on O=C(O)C(F)(F)C(F)(F)C(F)(F)C(F)(F)C(F)(F)F ?
Return: inactive

Enquiry: What was the test verdict on Cc1ccccc1O ?
Return: inactive

Enquiry: What was the test verdict on CCCCCCCCOC(=O)c1ccccc1C(=O)OCCCCCCCC ?
Return: inactive

Enquiry: What was the test verdict on Nc1ccc(-c2ccc(N)cc2)cc1 ?
Return: inactive

Enquiry: What was the test verdict on ClC1=C(Cl)[C@]2(Cl)[C@@H]3[C@@H](Cl)[C@H]4O[C@H]4[C@@H]3C1(Cl)C2(Cl)Cl ?
Return: inactive

Enquiry: What was the test verdict on CCCN(CCC)N=O ?
Return: inactive

* * *

- Read-out: Macrophage colony-stimulating factor (MCSF), CSF1 (gene 1435)
- Test: BSK_LPS_MCSF: BioMAP Diversity Plus: LPS Assay for Macrophage colony-stimulating factor (MCSF) Biomarker Activity (AID 2283083)
- Measurement Setup: primary human HUVEC with PBMC; actives raise or lower the signal
Active and inactive are the calls of the source. How the source made its calls: active means hit-call score of the fitted dose curve at least 0.9, where 1 is the maximum; inactive means score below 0.9.
Thanks in advance; please answer with one of these: 1 (active), 0 (inactive)

Example entries begin here.
- Smiles: "ClC1=C(Cl)[C@]2(Cl)[C@@H]3[C@H]4C[C@H]([C@@H]5O[C@H]45)[C@@H]3[C@@]1(Cl)C2(Cl)Cl"
  Cat: 0
- Smiles: "CCC(=O)O[C@H]1CC[C@H]2[C@@H]3CCC4=CC(=O)CC[C@]4(C)[C@H]3CC[C@]12C"
  Cat: 1
- Smiles: "CCC(C)(c1ccc(O)cc1)c1ccc(O)cc1"
  Cat: 1
- Smiles: "c1cc2ccc3cccc4ccc(c1)c2c34"
  Cat: 0
- Smiles: "Cc1ccccc1[N+](=O)[O-]"
  Cat: 0
- Smiles: "Oc1ccc(Cl)cc1Cl"
  Cat: 0
- Smiles: "Cc1ccc(O)c(C)c1"
  Cat: 0
- Smiles: "O=C(NC(=O)c1c(F)cccc1F)Nc1cc(Cl)c(OC(F)(F)C(F)F)c(Cl)c1"
  Cat: 0

Enquiry: What was the test verdict on CCCN(CCC)N=O ?
Return: 0

Enquiry: What was the test verdict on CCCCCCCCOC(=O)c1ccccc1C(=O)OCCCCCCCC ?
Return: 0

Enquiry: What was the test verdict on O=C(O)C(F)(F)C(F)(F)C(F)(F)C(F)(F)C(F)(F)C(F)(F)C(F)(F)C(F)(F)F ?
Return: 0

Enquiry: What was the test verdict on CCOP(=S)(OCC)SCSC(C)(C)C ?
Return: 0

Enquiry: What was the test verdict on CC(C)(O)C(=O)Nc1ccc([N+](=O)[O-])c(C(F)(F)F)c1 ?
Return: 1

Enquiry: What was the test verdict on ClC1=C(Cl)[C@]2(Cl)[C@@H]3[C@@H]4C[C@@H]([C@H]5O[C@@H]45)[C@@H]3[C@@]1(Cl)C2(Cl)Cl ?
Return: 0

Enquiry: What was the test verdict on CCC(C)(CC)c1cc(NC(=O)c2c(OC)cccc2OC)on1 ?
Return: 0

* * *

- Read-out: Interleukin-6 (IL6), IL6 (gene 3569)
- Test: BSK_CASM3C_IL6: BioMAP Diversity Plus: CASM3C Assay for Interleukin-6 (IL6) Biomarker Activity for (AID 2283040)
- Measurement Setup: primary human coronary artery smooth muscle cells; actives raise or lower the signal
Calls of active or inactive are those of the source. How the source made its calls: active means hit-call score of the fitted dose curve at least 0.9, where 1 is the maximum; inactive means score below 0.9.
Thanks in advance; please answer with one of these: Yes (active), No (inactive)

Example entries begin here.
- Smiles: "Oc1c(Cl)c(Cl)c(Cl)c(Cl)c1Cl"
  Cat: "No"
- Smiles: "CCCCCCOC(=O)c1ccccc1C(=O)OCCCCCC"
  Cat: "No"
- Smiles: "Cc1ccccc1O"
  Cat: "No"

Enquiry: What was the test verdict on ClC(Cl)=C(c1ccc(Cl)cc1)c1ccc(Cl)cc1 ?
Return: No

Enquiry: What was the test verdict on c1ccc(-c2ccccc2)cc1 ?
Return: No

Enquiry: What was the test verdict on O=C(O)C(F)(F)C(F)(F)C(F)(F)C(F)(F)C(F)(F)C(F)(F)C(F)(F)C(F)(F)F ?
Return: No

Enquiry: What was the test verdict on c1cc2ccc3cccc4ccc(c1)c2c34 ?
Return: No

Enquiry: What was the test verdict on O=S(=O)(O)C(F)(F)C(F)(F)C(F)(F)C(F)(F)F ?
Return: No

Enquiry: What was the test verdict on ClC1=C(Cl)[C@]2(Cl)[C@@H]3[C@@H]4C[C@@H]([C@H]5O[C@@H]45)[C@@H]3[C@@]1(Cl)C2(Cl)Cl ?
Return: No

Enquiry: What was the test verdict on C=CC(=O)NCNC(=O)C=C ?
Return: No

Enquiry: What was the test verdict on Cc1cccc(C)c1N ?
Return: No

Enquiry: What was the test verdict on Cc1ccc(O)c(C)c1 ?
Return: Yes

Enquiry: What was the test verdict on CCCCCCCCOC(=O)c1ccccc1C(=O)OCCCCCCCC ?
Return: No

Enquiry: What was the test verdict on ClC1=C(Cl)[C@]2(Cl)[C@@H]3[C@@H](Cl)[C@H]4O[C@H]4[C@@H]3C1(Cl)C2(Cl)Cl ?
Return: No

Enquiry: What was the test verdict on CCOCCOC(C)=O ?
Return: No

Enquiry: What was the test verdict on ClC1=C(Cl)[C@]2(Cl)[C@@H]3[C@H]4C[C@H]([C@@H]5O[C@H]45)[C@@H]3[C@@]1(Cl)C2(Cl)Cl ?
Return: No
